- Tested on: full-length ATR (Homo sapiens, UniProt Q13535)
- Construct: Assays were carried out at 25° C. in the presence of 5 nM full-length ATR
- Sequence (Q13535 whole entry): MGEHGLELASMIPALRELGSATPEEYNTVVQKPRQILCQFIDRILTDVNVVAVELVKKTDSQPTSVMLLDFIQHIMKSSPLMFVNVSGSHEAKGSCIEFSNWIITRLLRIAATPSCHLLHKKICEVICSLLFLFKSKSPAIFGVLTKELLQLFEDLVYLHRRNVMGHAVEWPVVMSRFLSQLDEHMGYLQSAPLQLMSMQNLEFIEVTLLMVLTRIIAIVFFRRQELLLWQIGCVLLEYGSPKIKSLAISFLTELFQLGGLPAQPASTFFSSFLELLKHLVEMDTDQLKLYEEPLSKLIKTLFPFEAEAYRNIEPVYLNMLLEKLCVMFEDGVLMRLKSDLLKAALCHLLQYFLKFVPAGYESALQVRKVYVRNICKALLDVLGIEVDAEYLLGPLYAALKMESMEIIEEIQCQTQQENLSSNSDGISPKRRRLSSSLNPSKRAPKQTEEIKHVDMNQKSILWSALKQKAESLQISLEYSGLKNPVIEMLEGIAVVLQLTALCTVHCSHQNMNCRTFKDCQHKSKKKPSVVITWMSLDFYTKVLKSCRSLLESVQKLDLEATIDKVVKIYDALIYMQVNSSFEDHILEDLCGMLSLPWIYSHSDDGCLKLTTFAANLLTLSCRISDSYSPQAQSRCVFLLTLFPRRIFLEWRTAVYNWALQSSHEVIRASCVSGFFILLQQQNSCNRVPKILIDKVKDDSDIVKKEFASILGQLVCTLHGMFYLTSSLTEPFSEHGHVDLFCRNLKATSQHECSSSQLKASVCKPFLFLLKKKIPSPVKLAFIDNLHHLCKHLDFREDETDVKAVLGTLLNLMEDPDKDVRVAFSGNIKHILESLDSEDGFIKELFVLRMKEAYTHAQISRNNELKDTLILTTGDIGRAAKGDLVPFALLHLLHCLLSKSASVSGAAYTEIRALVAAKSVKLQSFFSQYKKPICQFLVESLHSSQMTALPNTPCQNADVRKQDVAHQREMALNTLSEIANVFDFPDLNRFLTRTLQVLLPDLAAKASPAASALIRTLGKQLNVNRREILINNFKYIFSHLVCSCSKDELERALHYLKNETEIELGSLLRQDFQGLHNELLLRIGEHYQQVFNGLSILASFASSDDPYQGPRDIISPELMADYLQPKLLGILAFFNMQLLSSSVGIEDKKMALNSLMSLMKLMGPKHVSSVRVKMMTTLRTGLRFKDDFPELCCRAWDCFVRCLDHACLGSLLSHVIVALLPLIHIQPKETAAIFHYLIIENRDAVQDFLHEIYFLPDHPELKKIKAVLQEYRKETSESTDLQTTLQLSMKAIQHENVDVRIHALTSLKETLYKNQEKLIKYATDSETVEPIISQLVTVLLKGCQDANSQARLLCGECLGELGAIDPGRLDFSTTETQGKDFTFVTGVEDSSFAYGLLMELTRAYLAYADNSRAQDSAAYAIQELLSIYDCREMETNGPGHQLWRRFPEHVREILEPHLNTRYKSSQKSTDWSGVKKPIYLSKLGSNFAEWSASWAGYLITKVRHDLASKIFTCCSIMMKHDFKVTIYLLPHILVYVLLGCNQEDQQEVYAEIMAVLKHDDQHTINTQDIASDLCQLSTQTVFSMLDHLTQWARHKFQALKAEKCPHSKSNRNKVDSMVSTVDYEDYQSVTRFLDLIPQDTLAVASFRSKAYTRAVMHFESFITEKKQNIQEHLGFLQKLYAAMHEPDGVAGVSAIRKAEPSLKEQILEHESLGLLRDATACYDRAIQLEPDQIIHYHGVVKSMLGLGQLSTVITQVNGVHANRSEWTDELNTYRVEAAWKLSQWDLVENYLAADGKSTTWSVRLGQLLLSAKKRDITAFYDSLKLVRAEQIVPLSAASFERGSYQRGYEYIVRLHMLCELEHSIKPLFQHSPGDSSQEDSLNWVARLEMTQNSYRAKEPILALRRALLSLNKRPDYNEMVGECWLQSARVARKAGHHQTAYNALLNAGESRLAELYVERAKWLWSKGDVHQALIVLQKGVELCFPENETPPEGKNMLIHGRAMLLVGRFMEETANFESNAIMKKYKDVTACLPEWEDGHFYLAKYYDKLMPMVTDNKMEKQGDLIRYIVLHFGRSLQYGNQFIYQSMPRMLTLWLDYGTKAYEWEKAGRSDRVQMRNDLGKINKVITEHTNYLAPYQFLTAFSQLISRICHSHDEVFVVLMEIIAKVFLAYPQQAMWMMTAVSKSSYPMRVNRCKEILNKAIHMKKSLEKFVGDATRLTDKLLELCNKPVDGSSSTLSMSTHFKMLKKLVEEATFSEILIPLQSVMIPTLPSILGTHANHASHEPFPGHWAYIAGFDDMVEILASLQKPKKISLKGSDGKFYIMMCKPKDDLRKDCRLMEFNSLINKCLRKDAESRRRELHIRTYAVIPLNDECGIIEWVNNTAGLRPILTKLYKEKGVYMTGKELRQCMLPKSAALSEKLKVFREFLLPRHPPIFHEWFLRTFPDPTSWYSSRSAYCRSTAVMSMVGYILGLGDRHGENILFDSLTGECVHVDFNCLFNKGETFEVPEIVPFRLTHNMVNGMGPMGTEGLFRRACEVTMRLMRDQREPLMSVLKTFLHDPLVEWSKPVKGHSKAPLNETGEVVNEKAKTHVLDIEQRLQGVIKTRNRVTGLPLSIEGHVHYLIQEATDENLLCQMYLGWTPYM
- Test name: ATR Inhibition Assay (radioactive-phosphate incorporation)
- Type: biochemical
pKi: −log10 of the molar value.
Quantity: pKi

Solved cases (5 shown):
q: Form field: pKi recorded for N#CC1(c2cc(-c3cnc(N)c(-c4cc(-c5cccs5)no4)n3)ccn2)CCNCC1 with full-length ATR (Homo sapiens, UniProt Q13535) (enter value)
a: > 9.00

q: Form field: pKi recorded for CNCc1ccc(-c2cc(-c3nc(-c4ccnc(C(C)(C)C(=O)N(C)C)c4)cnc3N)on2)cc1 with full-length ATR (Homo sapiens, UniProt Q13535) (enter value)
a: > 9.00

q: Form field: pKi recorded for COC[C@@H](N)c1ccc(-c2nnc(-c3nc(-c4ccnc(C(C)(C)C#N)c4)cnc3N)o2)cc1 with full-length ATR (Homo sapiens, UniProt Q13535) (enter value)
a: > 9.00

q: Form field: pKi recorded for CN1CCN(Cc2ccc(-c3nnc(-c4nc(-c5ccnc(C(C)(C)C#N)c5)cnc4N)o3)cc2)CC1 with full-length ATR (Homo sapiens, UniProt Q13535) (enter value)
a: 7.70 to 8.30

q: Form field: pKi recorded for COc1ccccc1-c1nnc(-c2nc(-c3ccnc(C4(C#N)CCNCC4)c3)cnc2N)o1 with full-length ATR (Homo sapiens, UniProt Q13535) (enter value)
a: > 9.00

// input: 2 compounds below; output: pKi for each
1. CC(C)(C#N)c1cc(-c2cnc(N)c(-c3nnc(-c4ccc(F)cc4NCCN)o3)n2)ccn1
2. CC(C)(C#N)c1cc(-c2cnc(N)c(-c3cc(-c4ccc(CN[C@H]5CCOC5)cc4)no3)n2)ccn1

a:
> 9.00
> 9.00

// input: 5 compounds below; output: pKi for each
1. C[C@H](N)c1ccc(-c2nnc(-c3nc(-c4ccnc(C5(C#N)CCC5)c4)cnc3N)o2)cc1
2. CC(C)(C#N)c1cc(-c2cnc(N)c(-c3nnc(-c4ccc(C5CCCN5)cc4)o3)n2)ccn1 (stereo not shown)
3. CC(C)(C#N)c1cc(-c2cnc(N)c(-c3nnc(-c4ccc(CNC5CCOCC5)cc4)o3)n2)ccn1
4. CC(C)(C#N)c1cc(-c2cnc(N)c(-c3nnc(-c4ccc(N5CCNCC5)cc4)o3)n2)ccn1
5. CC(C)(C#N)c1cc(-c2cnc(N)c(-c3nnc(-c4ccc(CNCC5COC5)cc4)o3)n2)ccn1

a:
> 9.00
> 9.00
> 9.00
> 9.00
> 9.00

// input: 4 compounds below; output: pKi for each
1. CNCc1ccc(-c2cc(-c3nc(-c4ccnc(C5(C#N)CCOCC5)c4)cnc3N)on2)cc1
2. CC(C)(C#N)c1cc(-c2cnc(N)c(-c3nnc(-c4ccc(NCCN)cc4F)o3)n2)ccn1
3. CNCc1ccc(-c2cc(-c3nc(-c4ccnc(C5(C(N)=O)CCOCC5)c4)cnc3N)on2)cc1
4. N#CC1(c2cc(-c3cnc(N)c(-c4nnc(-c5ccccc5)o4)n3)ccn2)CCNCC1

a:
1: > 9.00; 2: 7.70 to 8.30; 3: > 9.00; 4: 7.70 to 8.30

// input: 3 compounds below; output: pKi for each
1. CC(C)(C#N)c1cc(-c2cnc(N)c(-c3cc(-c4ccc(CNC5CCOCC5)cc4)no3)n2)ccn1
2. CC(C)(C#N)c1cc(-c2cnc(N)c(-c3nnc(-c4cc5c(s4)CCNC5)o3)n2)ccn1
3. CC(C)(C#N)c1cc(-c2cnc(N)c(-c3nnc(-c4cccc(N5CC[C@@H](N)C5)c4)o3)n2)ccn1

a:
1. > 9.00
2. > 9.00
3. > 9.00

// input: 2 compounds below; output: pKi for each
1. CN(C)CCNc1ccc(-c2nnc(-c3nc(-c4ccnc(C(C)(C)C#N)c4)cnc3N)o2)c(F)c1
2. CN(C)CCOc1ccc(-c2nnc(-c3nc(-c4ccnc(C(C)(C)C#N)c4)cnc3N)o2)cc1

a:
1. 7.00 to 7.70
2. > 9.00

// input: 3 compounds below; output: pKi for each
1. CC(C)(C#N)c1cc(-c2cnc(N)c(-c3cc(-c4ccc(C5COCCN5)cc4)no3)n2)ccn1 (stereo not shown)
2. CC(C)(C#N)c1cc(-c2cnc(N)c(-c3nnc(-c4cc5c(s4)CNCC5)o3)n2)ccn1
3. CN(C)CCNc1cc(F)ccc1-c1nnc(-c2nc(-c3ccnc(C(C)(C)C#N)c3)cnc2N)o1

a:
["> 9.00", "> 9.00", "> 9.00"]

q: Form field: pKi recorded for CC(C)(C#N)c1cc(-c2cnc(N)c(-c3cc(-c4ccc(CNC5CC5)cc4)no3)n2)ccn1 with full-length ATR (Homo sapiens, UniProt Q13535) (enter value)
a: > 9.00
